Assay: Acidity constant (pKa) measurement, Sirius T3 UV-metric, and speciation at pH 7.4
Settings: from experimental pKa
# note: exactly 0.6% is not below, so it is 0; use 1 for Negative form (pH = 7.40) strictly under it

Lab note: confirm whether the reported Negative form (pH = 7.40) for this molecule is below 0.6%, equality not counting. molecule: CC1(C)C(O)C(C)(C)C1O (racemic)
1

More entries:
Lab note: confirm whether the reported Negative form (pH = 7.40) for this molecule is below 0.6%, equality not counting. molecule: Oc1ccc(C(c2ccc(O)cc2)(C(F)(F)F)C(F)(F)F)cc1
0

Lab note: confirm whether the reported Negative form (pH = 7.40) for this molecule is below 0.6%, equality not counting. molecule: CC(C)(c1cc(Cl)c(O)c(Cl)c1)c1cc(Cl)c(O)c(Cl)c1
0

Lab note: confirm whether the reported Negative form (pH = 7.40) for this molecule is below 0.6%, equality not counting. molecule: Oc1ccc(Sc2ccc(O)cc2)cc1
0

Lab note: confirm whether the reported Negative form (pH = 7.40) for this molecule is below 0.6%, equality not counting. molecule: CC(C)c1cc(C(C)(C)c2ccc(O)c(C(C)C)c2)ccc1O
1

----------
Tested on: HEK293T (ERα)
Conditions: Bioassay ERα; cytotoxicity; dosing range all
Catalogue of IC10, linear transformed readings, one per entry.
Note: the reply should be a number with no unit written.

Consider the following illustrative entries.
Would you mind telling me what IC10, linear transformed value was observed for O=C(OCc1ccccc1)c1ccc(O)cc1 [BzPB, Benzyl 4-hydroxybenzoate] ?
1.15E-05

Would you mind telling me what IC10, linear transformed value was observed for CC(C)c1cc(C(C)(C)c2ccc(O)c(C(C)C)c2)ccc1O ?
5.99E-06

Would you mind telling me what IC10, linear transformed value was observed for CC(c1ccc(O)cc1)c1ccc(O)cc1 ?
3.62E-05

Would you mind telling me what IC10, linear transformed value was observed for C=CCOc1ccc(S(=O)(=O)c2ccc(O)cc2)cc1 [BPS-MAE, 4-[[4-(Allyloxy)phenyl]sulfonyl]phenol] ?
6.22E-05

Would you mind telling me what IC10, linear transformed value was observed for Oc1ccc(C2(c3ccc(O)cc3)CCCCC2)cc1 [BPZ, 1,1'-Bis(4-hydroxyphenyl)cyclohexane] ?
8.13E-06

More entries:
Would you mind telling me what IC10, linear transformed value was observed for CC(C)(c1cc(Cl)c(O)c(Cl)c1)c1cc(Cl)c(O)c(Cl)c1 ?
6.86E-06

Would you mind telling me what IC10, linear transformed value was observed for Cc1ccc(S(=O)(=O)NC(=O)Nc2cccc(OS(=O)(=O)c3ccc(C)cc3)c2)cc1 ?
8.23E-06

----------
Biological target: Aryl hydrocarbon receptor (Rattus norvegicus)
Sequence (P41738 10-853): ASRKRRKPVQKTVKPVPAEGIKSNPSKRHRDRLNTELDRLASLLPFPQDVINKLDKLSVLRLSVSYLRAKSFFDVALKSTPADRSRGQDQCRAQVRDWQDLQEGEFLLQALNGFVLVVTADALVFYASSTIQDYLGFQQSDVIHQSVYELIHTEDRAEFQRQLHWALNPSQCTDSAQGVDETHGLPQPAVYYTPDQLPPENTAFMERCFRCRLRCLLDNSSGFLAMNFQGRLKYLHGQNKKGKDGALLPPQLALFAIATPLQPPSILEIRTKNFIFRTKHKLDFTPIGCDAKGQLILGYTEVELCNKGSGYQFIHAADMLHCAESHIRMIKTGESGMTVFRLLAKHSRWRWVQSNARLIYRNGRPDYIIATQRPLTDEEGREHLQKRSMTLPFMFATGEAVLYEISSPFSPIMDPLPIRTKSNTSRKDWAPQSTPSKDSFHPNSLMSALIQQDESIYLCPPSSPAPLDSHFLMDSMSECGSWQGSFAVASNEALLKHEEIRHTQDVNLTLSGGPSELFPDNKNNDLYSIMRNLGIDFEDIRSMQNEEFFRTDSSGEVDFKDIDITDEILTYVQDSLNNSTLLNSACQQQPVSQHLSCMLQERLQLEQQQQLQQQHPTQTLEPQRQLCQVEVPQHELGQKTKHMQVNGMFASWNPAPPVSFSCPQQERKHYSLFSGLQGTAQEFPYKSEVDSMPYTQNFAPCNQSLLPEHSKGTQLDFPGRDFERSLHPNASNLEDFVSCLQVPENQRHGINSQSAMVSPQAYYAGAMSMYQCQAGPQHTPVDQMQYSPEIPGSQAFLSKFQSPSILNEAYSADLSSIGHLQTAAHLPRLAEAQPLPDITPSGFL
Details: Bioassay AhR; dosing range all; log-logistic model fit
Recorded Metric: logEC10

Consider the following illustrative entries.
Would you mind telling me what logEC10 value was observed for Cc1ccc(S(=O)(=O)NC(=O)Nc2cccc(OS(=O)(=O)c3ccc(C)cc3)c2)cc1 [Pergafast] ?
-4.61

Would you mind telling me what logEC10 value was observed for CC(C)(c1ccc(OCC2CO2)cc1)c1ccc(OCC2CO2)cc1 (stereo not drawn) [BADGE, Bisphenol A diglycidyl ether] ?
no effect

Would you mind telling me what logEC10 value was observed for O=S(=O)(c1ccc(O)cc1)c1ccc(OCc2ccccc2)cc1 [BPS-MPE, 4-[4-(benzyloxy)benzenesulfonyl]phenol] ?
no effect

Would you mind telling me what logEC10 value was observed for O=C(OCc1ccccc1)c1ccc(O)cc1 [BzPB, Benzyl 4-hydroxybenzoate] ?
no effect

Would you mind telling me what logEC10 value was observed for CC(C)(c1cc(Cl)c(O)c(Cl)c1)c1cc(Cl)c(O)c(Cl)c1 [TCBPA, 2,2',6,6'-Tetrachlorobisphenol A] ?
no effect

Let's switch to this compound now.
Would you mind telling me what logEC10 value was observed for CC(C)Oc1ccc(S(=O)(=O)c2ccc(O)cc2)cc1 [D8, 4-((4-Isopropoxyphenyl)sulfonyl)phenol] ?
no effect

----------
Catalogue of logIC10 readings, one per entry.
Tested on: HEK293H (PPARγ)
Conditions: human, 24 h
Note: the reply should be a number with no unit written.

Would you mind telling me what logIC10 value was observed for CC(C)CC(C)(c1ccc(O)cc1)c1ccc(O)cc1 ?
-5.09

Would you mind telling me what logIC10 value was observed for O=S(=O)(c1ccc(O)cc1)c1ccccc1O [2,4-BPS, 2,4'-Dihydroxydiphenyl sulfone] ?
-3.73

Would you mind telling me what logIC10 value was observed for CC(C)(c1ccc(O)cc1)c1ccc(O)cc1 [BPA, 4,4'-(Propane-2,2-diyl)diphenol, reference compound] ?
-4.45

Would you mind telling me what logIC10 value was observed for CC(C)Oc1ccc(S(=O)(=O)c2ccc(O)cc2)cc1 ?
-4.15

----------
System: HEK293T (ERα)
Details: Bioassay ERα; cytotoxicity; dosing range all; linear model fit
Catalogue of IC10, linear readings, one per entry.
Note: the reply should be a number with no unit written.

Would you mind telling me what IC10, linear value was observed for Oc1ccc(C2(c3ccc(O)cc3)CCCCC2)cc1 [BPZ, 1,1'-Bis(4-hydroxyphenyl)cyclohexane] ?
6.53E-06

Let's switch to this molecule now.
Would you mind telling me what IC10, linear value was observed for Cc1cc(Cc2cc(C)c(O)c(C)c2)cc(C)c1O [TMBPF, Bis(3,5-dimethyl-4-hydroxyphenyl)methane] ?
6.58E-06

----------
Test system: HEK293T (ERα)
Details: Bioassay ERα; cytotoxicity; dosing range all
Protocol: Cell culture conditions and bioassay protocols including response detection are provided in Text S2.1–2.4 and Table S3. − Cell viability was determined from cell confluency using an IncuCyte S3 Live-Cell Analysis System (Sartorius AG, Essen, Germany) before and after exposure, except for SH-SY5Y cells (live–dead staining with Nuclear Green LcS1 and propidium iodide, Abcam, UK). […]
Recorded Metric: IC10, linear transformed
Note: the reply should be a number with no unit written.

Consider the following illustrative entries.
Would you mind telling me what IC10, linear transformed value was observed for Cc1cc(Cc2cc(C)c(O)c(C)c2)cc(C)c1O [TMBPF, Bis(3,5-dimethyl-4-hydroxyphenyl)methane] ?
5.55E-06

Would you mind telling me what IC10, linear transformed value was observed for O=S(=O)(c1ccc(O)cc1)c1ccc(OCc2ccccc2)cc1 [BPS-MPE, 4-[4-(benzyloxy)benzenesulfonyl]phenol] ?
3.17E-05

Would you mind telling me what IC10, linear transformed value was observed for CC(C)(c1ccc(O)c(-c2ccccc2)c1)c1ccc(O)c(-c2ccccc2)c1 [BPPH, 2,2-Bis(2-hydroxy-5-biphenylyl)propane] ?
5.43E-06

Would you mind telling me what IC10, linear transformed value was observed for CC(C)(c1ccc(OCC2CO2)cc1)c1ccc(OCC2CO2)cc1 (stereo not shown) ?
1.08E-05

Would you mind telling me what IC10, linear transformed value was observed for Oc1ccc(Sc2ccc(O)cc2)cc1 ?
4.06E-05

More entries:
Would you mind telling me what IC10, linear transformed value was observed for CC(c1ccccc1)(c1ccc(O)cc1)c1ccc(O)cc1 ?
1.11E-05

Would you mind telling me what IC10, linear transformed value was observed for Oc1ccc(Cc2ccc(O)cc2)cc1 [BPF, Bis(4-hydroxyphenyl)methane] ?
1.16E-05

----------
Test system: HEK293T (ERα)
Details: Bioassay ERα; cytotoxicity; dosing range all; log-logistic model fit
Recorded Metric: logIC10
Note: the reply should be a number with no unit written.

Would you mind telling me what logIC10 value was observed for O=S(=O)(c1ccc(O)cc1)c1ccc(OCc2ccccc2)cc1 [BPS-MPE, 4-[4-(benzyloxy)benzenesulfonyl]phenol] ?
-4.00

Would you mind telling me what logIC10 value was observed for CC(C)(c1cc(Cl)c(O)c(Cl)c1)c1cc(Cl)c(O)c(Cl)c1 ?
-4.77

More entries:
Would you mind telling me what logIC10 value was observed for CC(c1ccccc1)(c1ccc(O)cc1)c1ccc(O)cc1 ?
-4.93

Would you mind telling me what logIC10 value was observed for Oc1ccc(Sc2ccc(O)cc2)cc1 ?
-4.53

Would you mind telling me what logIC10 value was observed for CC(C)(c1ccc(OCC2CO2)cc1)c1ccc(OCC2CO2)cc1 (stereo not shown) ?
-4.73

Would you mind telling me what logIC10 value was observed for CC(C)c1cc(C(C)(C)c2ccc(O)c(C(C)C)c2)ccc1O ?
-5.16

Would you mind telling me what logIC10 value was observed for CC(C)(c1ccc(O)c(-c2ccccc2)c1)c1ccc(O)c(-c2ccccc2)c1 [BPPH, 2,2-Bis(2-hydroxy-5-biphenylyl)propane] ?
-5.08

----------
Test system: HEK293T (ERα)
Settings: against baseline cytotoxicity
Recorded Metric: Toxic ratio (TR) TRERα
Note: the reply should be a number with no unit written.

Consider the following illustrative entries.
Would you mind telling me what Toxic ratio (TR) TRERα value was observed for CCC(C)(c1ccc(O)cc1)c1ccc(O)cc1 [BPB, 4,4'-(Butane-2,2-diyl)diphenol] ?
0.43

Would you mind telling me what Toxic ratio (TR) TRERα value was observed for O=S(=O)(c1ccc(O)cc1)c1ccc(OCc2ccccc2)cc1 [BPS-MPE, 4-[4-(benzyloxy)benzenesulfonyl]phenol] ?
0.10

Would you mind telling me what Toxic ratio (TR) TRERα value was observed for Cc1ccc(S(=O)(=O)NC(=O)Nc2cccc(OS(=O)(=O)c3ccc(C)cc3)c2)cc1 [Pergafast] ?
4.31

Would you mind telling me what Toxic ratio (TR) TRERα value was observed for Cc1cc(Cc2cc(C)c(O)c(C)c2)cc(C)c1O [TMBPF, Bis(3,5-dimethyl-4-hydroxyphenyl)methane] ?
0.68

Would you mind telling me what Toxic ratio (TR) TRERα value was observed for CC(C)Oc1ccc(S(=O)(=O)c2ccc(O)cc2)cc1 [D8, 4-((4-Isopropoxyphenyl)sulfonyl)phenol] ?
0.36

More entries:
Would you mind telling me what Toxic ratio (TR) TRERα value was observed for CC(C)(c1ccc(OCC2CO2)cc1)c1ccc(OCC2CO2)cc1 (stereo not shown) [BADGE, Bisphenol A diglycidyl ether] ?
0.54

Would you mind telling me what Toxic ratio (TR) TRERα value was observed for COC(=O)C(c1ccc(O)cc1)c1ccc(O)cc1 [Bz, Methyl bis(4-hydroxyphenyl)acetate] ?
0.26
